test.method.notes: yeast display, Sf9 membrane polyspecificity reagent, FACS + sequencing; frameworks hold sequencing errors
reported.endpoint: polyreactivity (PSR sort gate)

{"residue.sequence": "QVQLVESGGGLVQAGGSLRLSWAASGNTFYGYAMGWYRQAPGKERELVAGIRWSGGSTSYADSVKGRFTISRDNAKNTVYLQMNSLKTEDTAVYYCAAGWYPWGYYSGYISYEYWGQGTQVTVSS", "reported.endpoint": "polyreactivity (PSR sort gate)", "recorded.measurement": "high polyreactivity"}
{"residue.sequence": "QVQLVESGGGLVQAGGSLRLSCAASGSIFSRYAMGWYRQSPGKERELVAAISQRAGSTYYADSVKGRFTISRDNAKNTVYLQMNSLKPEDTAVYYCAARRRGRKERGEDYWGQGTQVTVSS", "reported.endpoint": "polyreactivity (PSR sort gate)", "recorded.measurement": "high polyreactivity"}

###

test.method.notes: yeast display, Sf9 membrane polyspecificity reagent, FACS + sequencing; frameworks hold sequencing errors
reported.endpoint: polyreactivity (PSR sort gate)

Worked set:
{"residue.sequence": "QVQLVESGGGLVQAGGSLRLSCASSGSIFQYNAMGWYRQAPGKERELVAAINGGGSTYYADSVRGRFTISRDNAKNTVYLQMNSLKPEDTAVYYCAARHGESHYDYWGQGTQVTVSS", "reported.endpoint": "polyreactivity (PSR sort gate)", "recorded.measurement": "low polyreactivity"}
{"residue.sequence": "QVQLVESGGGLVQAGGSLRLSCAASGSTFGIYAMGWYRQAPGKERELVAAISWRGGRTYYADSVKGRFTISRDNAKNTVYLQMNSLKPEDTAVYYCAADYRYLWEGYDYWGQGTQVTVSS", "reported.endpoint": "polyreactivity (PSR sort gate)", "recorded.measurement": "low polyreactivity"}
{"residue.sequence": "QVQLVESGGGLVQAGGSLRLSCAASGFIFGYYTMGWYRQAPGKERELVASITRGGSTNYADSVKGRFTISRDNAKYTVYLQMNSLNPEDTAVYYCAKRYAQTYSVSRYYYWGQGTQVTVSS", "reported.endpoint": "polyreactivity (PSR sort gate)", "recorded.measurement": "high polyreactivity"}
{"residue.sequence": "QVQLVESGGRLVQAGGSLRLTCAASGRTFNYYAMGWYRQAPGKERELVAAISRSGGSTYYADSVKGRFTISRDNAKNTVYLQMNSLKPEDTAVYYCNRDRGSIYGWGQGTQVTVSS", "reported.endpoint": "polyreactivity (PSR sort gate)", "recorded.measurement": "high polyreactivity"}
{"residue.sequence": "QVQLVESGGGLVQAGGSLRLICADSGRIFNRYAMGWYRQAPGKEREFVAGITWNGGSTYYADSVKGRFTISRDNSKNTVNLQMNSLKPEDTAVYYCAATHYYYGTSRYDYWGQGTQVTVSS", "reported.endpoint": "polyreactivity (PSR sort gate)", "recorded.measurement": "high polyreactivity"}
{"residue.sequence": "QVQLVESGRGLVQAGVSLRLSCAASGRTFVLYTMGWYRQAPGKERELVAAITKSGGSTYYADSVKGRFTISRDNAKNTVYLQMNSLKPEDTAVYYCAAARRYYTYYREDYYYWGQGTLVTVSS", "reported.endpoint": "polyreactivity (PSR sort gate)", "recorded.measurement": "high polyreactivity"}

IN: Recall and state the measured polyreactivity (PSR sort gate) for QVQLVESGVGLVQAGGSLRLSCAASGSIFPPYAMGWYRQAPGKERELVAAITSGGRTNYADSVKGRFTISRDNAKNTVYLQMNSLKPEDTEVYYCAQTGSYAKIRPNNDYWGQGTQVTVSS .
OUT: low polyreactivity

IN: Recall and state the measured polyreactivity (PSR sort gate) for QVQLVESGGGLVQAGGSLRLSCAASGFTISRYAMGWYRQAPGKERELVASITYSGTRTYYADSVKGRFTISRDNAKNTVYLQMNSLKPEDTAVYYCAADDEYKQEAEMDSWGQGTQVTVSS .
OUT: low polyreactivity

IN: Recall and state the measured polyreactivity (PSR sort gate) for QVQLVESGGGLVQAGGSLRLSCAASGITFFWYDMGWYRQAPGKERELVASISSGGTTSYADSVKGRFTISRDNAKNTVYLQMNSLKPEDTAVYYCAATHWNRWHFDYWGQGTQVTVSS .
OUT: low polyreactivity

IN: Recall and state the measured polyreactivity (PSR sort gate) for QVQLVESGGGLVQAGGSLRLSCAASGFTFYYYAMGWYRQATGKERELVAAISSTGGSTYYADSVKGRFTISRDNAKNTVYLQMNSVKQEDSAVYYCNAAGYRYPGDYDYWGQGTQVTVSS .
OUT: high polyreactivity
